Target: DMT1 (Homo sapiens, UniProt P49281)
Sequence (P49281 1-568): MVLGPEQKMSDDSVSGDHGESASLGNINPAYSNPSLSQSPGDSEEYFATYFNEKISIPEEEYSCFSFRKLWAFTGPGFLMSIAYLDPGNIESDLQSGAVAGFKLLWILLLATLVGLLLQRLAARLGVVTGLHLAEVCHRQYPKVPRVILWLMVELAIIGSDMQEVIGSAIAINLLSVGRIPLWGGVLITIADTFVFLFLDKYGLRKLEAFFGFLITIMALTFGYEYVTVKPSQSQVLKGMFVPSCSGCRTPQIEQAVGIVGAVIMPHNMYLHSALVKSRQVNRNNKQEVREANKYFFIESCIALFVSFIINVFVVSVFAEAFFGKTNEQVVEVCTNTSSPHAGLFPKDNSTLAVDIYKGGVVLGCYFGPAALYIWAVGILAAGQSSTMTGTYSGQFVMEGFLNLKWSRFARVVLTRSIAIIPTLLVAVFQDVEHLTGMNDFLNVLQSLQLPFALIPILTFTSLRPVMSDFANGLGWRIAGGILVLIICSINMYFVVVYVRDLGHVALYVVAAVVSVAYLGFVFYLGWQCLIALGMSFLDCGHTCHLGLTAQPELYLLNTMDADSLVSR
Test: DMT1 Activity Assay (in vitro)
Settings: read-out: IC50 Activity Level
pIC50: −log10 of the molar value. Where a name gives a salt, the structure may show the parent alone.
# pIC50 per record follows

Previously resolved entries follow.
- Compound: "N=C(N)SCc1cccc2c1sc1c(CSC(=N)N)cccc12 [Example 1, dihydrobromide]"
  pIC50: "6.00 to 7.00"
- Compound: "N=C(N)SCc1cccc2cc3cccc(CSC(=N)N)c3nc12 [Example 1.18, dihydrobromide]"
  pIC50: "6.00 to 7.00"
- Compound: "N=C(N)SCc1cccc2c1C(=O)c1c(CSC(=N)N)cccc1-2 [Example 2, dihydrobromide]"
  pIC50: "6.00 to 7.00"
- Compound: "N=C(N)SCc1cccc2c1-c1c(CSC(=N)N)cccc1C2=O [Example 1.15, dihydrobromide]"
  pIC50: "≤ 6.00"
- Compound: "N=C(N)SCc1cccc2cc3cccc(CSC(=N)N)c3cc12 [Example 1.9, dihydrobromide]"
  pIC50: "6.00 to 7.00"
- Compound: "N=C(N)SCc1cc(F)cc2c1sc1c(CSC(=N)N)cc(Cl)cc12 [Example 1.11, dihydrobromide]"
  pIC50: "7.00 to 8.00"

[Q] What is its pIC50 for DMT1 (Homo sapiens, UniProt P49281)? Entry: N=C(N)SCc1cc(Br)cc2c1oc1c(CSC(=N)N)cc(Br)cc12 [Example 1.7, dihydrobromide]
[A] 7.00 to 8.00

[Q] Would you kindly repeat that for N=C(N)SCc1cccc2c1oc1c(CSC(=N)N)cccc12 [Example 1.8, dihydrobromide] ?
[A] 7.00 to 8.00

[Q] Would you kindly repeat that for `N=C(N)SCc1ccc(CSC(=N)N)c2c1-c1c(CSC(=N)N)ccc(CSC(=N)N)c1-2` ?
[A] 6.00 to 7.00

[Q] Would you kindly repeat that for Cc1ccc2c(oc3c(CSC(=N)N)c(C)ccc32)c1CSC(=N)N [Example 1.3, dihydrobromide] ?
[A] 6.00 to 7.00

[Q] Would you kindly repeat that for CC(C)(C)c1cc(CSC(=N)N)c2c(c1)C(C)(C)c1cc(C(C)(C)C)cc(CSC(=N)N)c1O2 [Example 4, dihydrobromide] ?
[A] ≤ 6.00

[Q] Would you kindly repeat that for N=C(N)SCc1cccc2c1-c1c(CSC(=N)N)cccc1-2 [Example 2.1, dihydrobromide] ?
[A] 7.00 to 8.00

----------
target: DMT1 (Homo sapiens); test: DMT1 Activity Assay (in vitro); format: cell-based; conditions: read-out: IC50 Activity Level
Where a name gives a salt, the structure may show the parent alone.
# IC50 per record follows

Previously resolved entries follow.
- Compound: "N=C(N)SCc1c(Cl)ccc2c1oc1c(CSC(=N)N)c(Cl)ccc12 [Example 1.5]"
  System under test: "DMT1 (Homo sapiens)"
  IC50: "100 to 1000 nM"
- Compound: "N=C(N)SCc1cc(F)cc2c1-c1c(CSC(=N)N)cc(F)cc1-2 [Example 5, dihydrobromide]"
  System under test: "DMT1 (Homo sapiens)"
  IC50: "10 to 100 nM"
- Compound: "N=C(N)SCc1c(F)ccc2c1oc1c(CSC(=N)N)c(F)ccc12 [Example 1.4, dihydrobromide]"
  System under test: "DMT1 (Homo sapiens)"
  IC50: "10 to 100 nM"
- Compound: "N=C(N)SCc1c(Br)ccc2c1oc1c(CSC(=N)N)c(Br)ccc12 [Example 1.13, dihydrobromide]"
  System under test: "DMT1 (Homo sapiens)"
  IC50: "100 to 1000 nM"
- Compound: "N=C(N)SCc1cccc2c1sc1c(CSC(=N)N)cc(F)cc12 [Example 1.10, dihydrobromide]"
  System under test: "DMT1 (Homo sapiens)"
  IC50: "100 to 1000 nM"

[Q] Which value of IC50 has been reported for N=C(N)SCc1cccc2c1-c1c(cccc1CSC(=N)N)CSC2 [Example 1.19, dihydrobromide] in the records?
[A] ≥ 1000 nM

[Q] Would you kindly repeat that for N=C(N)SCc1cccc2c(=O)c3cccc(CSC(=N)N)c3oc12 [Example 1.16, dihydrobromide] ?
[A] ≥ 1000 nM

[Q] Would you kindly repeat that for Cc1c2cccc(CSC(=N)N)c2nc2c(CSC(=N)N)cccc12 [Example 1.17, dihydrobromide] ?
[A] ≥ 1000 nM

----------
Where a name gives a salt, the structure may show the parent alone.
# melting point per record follows

[Q] Which value of melting point has been reported for N=C(N)SCc1cc(F)cc2c1-c1c(CSC(=N)N)cc(F)cc1-2 (as salt: hydrobromid) [Example 5, dihydrobromide] in the records?
[A] > 250 °C

[Q] Would you kindly repeat that for N=C(N)SCc1cc(Br)cc2c1oc1c(CSC(=N)N)cc(Br)cc12 (as salt: hydrobromid) [Example 1.7, dihydrobromide] ?
[A] > 220 °C

[Q] Would you kindly repeat that for Cc1c2cccc(CSC(=N)N)c2nc2c(CSC(=N)N)cccc12 (as salt: hydrobromid) [Example 1.17, dihydrobromide] ?
[A] > 270 °C (dec.)

[Q] Would you kindly repeat that for N=C(N)SCc1cccc2c1Oc1c(CSC(=N)N)cccc1S2 (as salt: hydrobromid) [Example 1.12, dihydrobromide] ?
[A] > 230 °C

----------
biological target: DMT1 (Homo sapiens, UniProt P49281); assay: DMT1 Activity Assay (in vitro); conditions: read-out: IC50 Activity Level
Where a name gives a salt, the structure may show the parent alone.
# IC50 per record follows

- Molecule: "N=C(N)SCc1cccc2sc3cccc(CSC(=N)N)c3c12 [Example 1.14, dihydrobromide]"
  IC50: "≥ 1 µM"
- Molecule: "N=C(N)SCc1cccc2c1oc1c(CSC(=N)N)cc(F)cc12 [Example 1.6, dihydrobromide]"
  IC50: "0.01 to 0.1 µM"
- Molecule: "N=C(N)SCc1cccc2c1Oc1c(CSC(=N)N)cccc1S2 [Example 1.12, dihydrobromide]"
  IC50: "0.1 to 1 µM"

[Q] Which value of IC50 has been reported for N=C(N)SCc1cccc2c1sc1c(CSC(=N)N)c(Br)ccc12 [Example 1.2, dihydrobromide] in the records?
[A] 0.1 to 1 µM

[Q] Would you kindly repeat that for N=C(N)SCc1c(Br)ccc2c1sc1c(CSC(=N)N)c(Br)ccc12 [Example 1.1, dihydrobromide] ?
[A] 0.1 to 1 µM

These measurements were taken from patent US20090069408A1.
